TSA(with NAD+) / Primary screening (TSA) / delta Tm (K) by entry:
- system under test: NAD-dependent deacetylase Sirtuin 1 (human)
- Sequence (Q96EB6 2-747 limits assumed): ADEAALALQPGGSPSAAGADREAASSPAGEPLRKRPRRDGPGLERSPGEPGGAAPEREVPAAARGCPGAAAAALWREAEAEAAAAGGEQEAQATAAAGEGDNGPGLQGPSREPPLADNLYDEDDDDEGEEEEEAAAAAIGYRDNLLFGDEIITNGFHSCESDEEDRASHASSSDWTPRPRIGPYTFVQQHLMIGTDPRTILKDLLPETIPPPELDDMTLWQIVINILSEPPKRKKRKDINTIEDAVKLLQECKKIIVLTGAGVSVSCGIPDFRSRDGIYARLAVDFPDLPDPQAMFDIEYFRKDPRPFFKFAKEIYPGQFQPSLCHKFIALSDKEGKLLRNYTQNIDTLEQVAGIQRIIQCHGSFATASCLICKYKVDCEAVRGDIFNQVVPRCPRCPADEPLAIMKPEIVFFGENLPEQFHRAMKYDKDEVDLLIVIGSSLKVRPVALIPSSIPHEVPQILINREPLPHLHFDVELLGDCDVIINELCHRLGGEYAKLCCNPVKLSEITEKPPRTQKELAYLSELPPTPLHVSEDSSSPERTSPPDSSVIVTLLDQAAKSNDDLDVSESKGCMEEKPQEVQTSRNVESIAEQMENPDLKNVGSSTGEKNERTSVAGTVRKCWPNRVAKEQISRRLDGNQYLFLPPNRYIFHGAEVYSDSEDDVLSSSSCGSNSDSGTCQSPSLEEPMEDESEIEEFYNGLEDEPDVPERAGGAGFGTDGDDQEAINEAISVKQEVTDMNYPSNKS
- method notes: primary screen, delta tm
- Parameters: single well (n = 1, as 'the same TSA')
- setup conditions: 10 µM
Whole data set: some 3,200 compounds, median “TSA(with NAD+) / Primary screening (TSA) / delta Tm (K)” near -0.04, cut for the highest 2% near 0.37. This is one part of a sample in which the highest values are shown more often than they occur.
measure name: TSA(with NAD+) / Primary screening (TSA) / delta Tm (K)

>>> df
                            chemical_smiles  result_unit  numeric_result
0      Cc1c(CCC#N)c(Cl)n2c(nc3ccccc32)c1C#N            K           -0.03
1        COCCCn1ccc(Nc2nc(C)nc3[nH]ccc23)n1            K           -0.03
2  NC(=O)CC1CCN(C(=O)CCc2c[nH]c3ccccc23)CC1            K           -0.03

* * *

- system under test: NAD-dependent deacetylase Sirtuin 1 (human)
- method notes: primary screen, delta tm
- Parameters: single well (n = 1, as 'the same TSA')
- setup conditions: 10 µM
The full ranking holds about 3,200 compounds; the median of “TSA(with NAD+) / Primary screening (TSA) / delta Tm (K)” is about -0.04, and the highest 2% start at about 0.37. What follows is part of a selection rich in the highest values, with near analogues and random picks from the rest.
measure name: TSA(with NAD+) / Primary screening (TSA) / delta Tm (K)

>>> df
                                    molecule   result
 0  COc1ccccc1C1C(C(=O)/C=C/c2ccco2)=C(O)C(=O)N1CCCN1CCOCC1 (stereo not shown)  -0.18 K
 1  N#CCCC(C#N)CN1CCC(CCc2ccc(O)cc2)CC1 (stereo not shown)  -0.14 K
 2  COc1ccc(NC(=O)CC23CC4CC(C2)CC(CC(=O)Nc2ccc(OC)cc2)(C4)C3)cc1  -0.11 K
 3  CC(OC(=O)c1cc2c(s1)CCCC2)C(=O)Nc1ccc(C(N)=O)cc1 (stereo not shown)   0.01 K
 4           O=C(O)CCCc1ccc2c(c1)-c1ccccc1C2   0.06 K
 5  Cc1cccc(C(=O)OCc2ccc(C(=O)Nc3ccccc3)cc2)c1  -0.03 K
 6  COc1ccccc1-c1noc(C(C)NC(=O)C(C)NC(C)=O)n1 (stereo not shown)  -0.01 K
 7  Cc1cc(C=C2C(=O)NC(=S)NC2=O)c(C)n1-c1cccc(C(F)(F)F)c1  -0.73 K
 8  O=C(C1=C(O)C(=O)N(CCCN2CCOCC2)C1c1cccc([N+](=O)[O-])c1)c1ccc(F)cc1 (stereo not shown)   0.06 K
 9  CCOc1cc(/C=N/NC(=O)c2cc3c(s2)CCCC3)ccc1OCC(=O)Nc1cccc(C(F)(F)F)c1   1.05 K
10  CC(C)Cn1c(SCC(=O)Nc2sc3c(c2C(N)=O)CCC3)nnc1N1CCOCC1  -0.18 K
11  CCc1cc2c(N3CCN(Cc4ccc5c(c4)OCO5)CC3)nc(C)nc2s1  -0.04 K
12  O=C(CCc1nc2ccccc2o1)N1CCN(C(c2ccc(F)cc2)c2ccc(F)cc2)CC1  -0.01 K
13  NC(=O)c1ccc(NC(=O)COC(=O)c2cc3c(s2)CCCCC3)cc1  -0.13 K
14  Cc1ccc(-c2nn(-c3ccccc3)cc2C(=O)Nc2cccc(S(=O)(=O)N3CCOCC3)c2)cc1   0.26 K
15    O=C(CCC(=O)c1ccccc1)Nc1ccccc1Cc1ccccc1  -0.11 K
16  COc1ccc(NC(=O)c2ccc(NC(=O)COC(=O)C34CC5CC(CC(Br)(C5)C3)C4)cc2)cc1   0.73 K
17  CCC(=O)Nc1cccc(C(=O)NNC(=O)c2nc(-c3ccccc3)n(-c3ccccc3)n2)c1  -0.06 K
18  Nc1nc(COC(=O)c2cccc(NC(=O)c3cccs3)c2)nc(Nc2ccccc2)n1   0.42 K
19       O=C1/C(=C/c2cccc(O)c2)Oc2cc(O)ccc21  -0.14 K
20  O=C(Nc1cccc(S(=O)(=O)N2CCOCC2)c1)c1cn(-c2ccccc2)nc1-c1ccccc1   0.12 K
21  CN1C(=O)c2oc3ccccc3c(=O)c2C1c1ccccc1F (stereo not shown)   0.01 K
22  O=C1NC(C(=O)O)=CC(c2ccccc2C(F)(F)F)N1 (stereo not shown)  -0.12 K
23  O=C(Nc1cccc(S(=O)(=O)N2CCOCC2)c1)c1cccc(S(=O)(=O)N2CCc3ccccc32)c1   0.41 K
24  Cc1ccc(C23CC4CC(CC(C(=O)OCC(N)=O)(C4)C2)C3)cc1C  -0.16 K
25  Cn1c(=O)c2ccccc2n2c(COC(=O)Cn3nc(-c4ccc(F)cc4)oc3=O)nnc12  -0.03 K
26  O=C(Nc1cccc(S(=O)(=O)N2CCOCC2)c1)c1ccccc1Cc1ccccc1  -0.09 K
27  COc1cc(/C=N/NC(=O)c2cc3c(s2)CCCC3)ccc1OS(=O)(=O)c1cc(C)ccc1C   0.09 K
28  CC1CCCN(CCCNC(=O)CCc2cc3ccccc3[nH]c2=O)C1 (stereo not shown)   0.11 K
29  Cc1ccc(C23CC4CC(CC(C(=O)OCC(=O)Nc5ccc(S(N)(=O)=O)cc5)(C4)C2)C3)cc1   0.29 K
30  COc1ccccc1NS(=O)(=O)c1ccc(NC(=O)CNC(=O)C23CC4CC(CC(C4)C2)C3)cc1   0.08 K
31          O=C(O)c1ccc2[nH]c(C(F)(F)F)nc2c1  -0.14 K
32   COc1ccc(CNCc2c[nH]nc2-c2ccc(C)cc2)cc1OC  -0.13 K
33  O=C(Nc1cccc(S(=O)(=O)N2CCOCC2)c1)c1cc(-c2ccccc2)nn1-c1ccccc1  -0.04 K

Values compiled from paper PMC6925144.
